# assayTarget: human DCN1 (residues 58–259), N-terminal His6 tag (human, UniProt Q96GG9 58-259)
# Sequence (Q96GG9 58-259): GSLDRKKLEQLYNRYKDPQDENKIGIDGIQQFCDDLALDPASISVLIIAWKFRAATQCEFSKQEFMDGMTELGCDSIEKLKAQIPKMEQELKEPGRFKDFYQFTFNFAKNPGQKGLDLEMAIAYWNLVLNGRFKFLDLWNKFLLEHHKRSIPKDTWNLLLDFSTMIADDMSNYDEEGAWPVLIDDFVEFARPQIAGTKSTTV
# protocolDetails: FP
Where no end group is shown, it is not given here. [ ]: non-standard residue; d: D form. 2Nal = N[C@@H](Cc1ccc2ccccc2c1)C(=O)O
The reader will find reported pKi values listed item by item below.
# reply with the number alone; pKi is -log10 of concentration in mol/L

Sample answers from the record:
MIKLF [UBC12 peptide 8]: 3.95
[2Nal]IKL [compound 23 (11 with the phenyl replaced by naphthalen-2-yl)]: 5.42

Q: Give the measured pKi of MIKLFSLKQ [UBC12 peptide 4] .
A: 5.19

Q: Also MIKLFS [UBC12 peptide 7] , if possible.
A: 4.08
